Target: C. difficile toxin A from strain VPI10463 (ATCC 43255), toxinotype 0 (Clostridium difficile, UniProt P16154 1-2710)
Sequence (P16154 whole entry): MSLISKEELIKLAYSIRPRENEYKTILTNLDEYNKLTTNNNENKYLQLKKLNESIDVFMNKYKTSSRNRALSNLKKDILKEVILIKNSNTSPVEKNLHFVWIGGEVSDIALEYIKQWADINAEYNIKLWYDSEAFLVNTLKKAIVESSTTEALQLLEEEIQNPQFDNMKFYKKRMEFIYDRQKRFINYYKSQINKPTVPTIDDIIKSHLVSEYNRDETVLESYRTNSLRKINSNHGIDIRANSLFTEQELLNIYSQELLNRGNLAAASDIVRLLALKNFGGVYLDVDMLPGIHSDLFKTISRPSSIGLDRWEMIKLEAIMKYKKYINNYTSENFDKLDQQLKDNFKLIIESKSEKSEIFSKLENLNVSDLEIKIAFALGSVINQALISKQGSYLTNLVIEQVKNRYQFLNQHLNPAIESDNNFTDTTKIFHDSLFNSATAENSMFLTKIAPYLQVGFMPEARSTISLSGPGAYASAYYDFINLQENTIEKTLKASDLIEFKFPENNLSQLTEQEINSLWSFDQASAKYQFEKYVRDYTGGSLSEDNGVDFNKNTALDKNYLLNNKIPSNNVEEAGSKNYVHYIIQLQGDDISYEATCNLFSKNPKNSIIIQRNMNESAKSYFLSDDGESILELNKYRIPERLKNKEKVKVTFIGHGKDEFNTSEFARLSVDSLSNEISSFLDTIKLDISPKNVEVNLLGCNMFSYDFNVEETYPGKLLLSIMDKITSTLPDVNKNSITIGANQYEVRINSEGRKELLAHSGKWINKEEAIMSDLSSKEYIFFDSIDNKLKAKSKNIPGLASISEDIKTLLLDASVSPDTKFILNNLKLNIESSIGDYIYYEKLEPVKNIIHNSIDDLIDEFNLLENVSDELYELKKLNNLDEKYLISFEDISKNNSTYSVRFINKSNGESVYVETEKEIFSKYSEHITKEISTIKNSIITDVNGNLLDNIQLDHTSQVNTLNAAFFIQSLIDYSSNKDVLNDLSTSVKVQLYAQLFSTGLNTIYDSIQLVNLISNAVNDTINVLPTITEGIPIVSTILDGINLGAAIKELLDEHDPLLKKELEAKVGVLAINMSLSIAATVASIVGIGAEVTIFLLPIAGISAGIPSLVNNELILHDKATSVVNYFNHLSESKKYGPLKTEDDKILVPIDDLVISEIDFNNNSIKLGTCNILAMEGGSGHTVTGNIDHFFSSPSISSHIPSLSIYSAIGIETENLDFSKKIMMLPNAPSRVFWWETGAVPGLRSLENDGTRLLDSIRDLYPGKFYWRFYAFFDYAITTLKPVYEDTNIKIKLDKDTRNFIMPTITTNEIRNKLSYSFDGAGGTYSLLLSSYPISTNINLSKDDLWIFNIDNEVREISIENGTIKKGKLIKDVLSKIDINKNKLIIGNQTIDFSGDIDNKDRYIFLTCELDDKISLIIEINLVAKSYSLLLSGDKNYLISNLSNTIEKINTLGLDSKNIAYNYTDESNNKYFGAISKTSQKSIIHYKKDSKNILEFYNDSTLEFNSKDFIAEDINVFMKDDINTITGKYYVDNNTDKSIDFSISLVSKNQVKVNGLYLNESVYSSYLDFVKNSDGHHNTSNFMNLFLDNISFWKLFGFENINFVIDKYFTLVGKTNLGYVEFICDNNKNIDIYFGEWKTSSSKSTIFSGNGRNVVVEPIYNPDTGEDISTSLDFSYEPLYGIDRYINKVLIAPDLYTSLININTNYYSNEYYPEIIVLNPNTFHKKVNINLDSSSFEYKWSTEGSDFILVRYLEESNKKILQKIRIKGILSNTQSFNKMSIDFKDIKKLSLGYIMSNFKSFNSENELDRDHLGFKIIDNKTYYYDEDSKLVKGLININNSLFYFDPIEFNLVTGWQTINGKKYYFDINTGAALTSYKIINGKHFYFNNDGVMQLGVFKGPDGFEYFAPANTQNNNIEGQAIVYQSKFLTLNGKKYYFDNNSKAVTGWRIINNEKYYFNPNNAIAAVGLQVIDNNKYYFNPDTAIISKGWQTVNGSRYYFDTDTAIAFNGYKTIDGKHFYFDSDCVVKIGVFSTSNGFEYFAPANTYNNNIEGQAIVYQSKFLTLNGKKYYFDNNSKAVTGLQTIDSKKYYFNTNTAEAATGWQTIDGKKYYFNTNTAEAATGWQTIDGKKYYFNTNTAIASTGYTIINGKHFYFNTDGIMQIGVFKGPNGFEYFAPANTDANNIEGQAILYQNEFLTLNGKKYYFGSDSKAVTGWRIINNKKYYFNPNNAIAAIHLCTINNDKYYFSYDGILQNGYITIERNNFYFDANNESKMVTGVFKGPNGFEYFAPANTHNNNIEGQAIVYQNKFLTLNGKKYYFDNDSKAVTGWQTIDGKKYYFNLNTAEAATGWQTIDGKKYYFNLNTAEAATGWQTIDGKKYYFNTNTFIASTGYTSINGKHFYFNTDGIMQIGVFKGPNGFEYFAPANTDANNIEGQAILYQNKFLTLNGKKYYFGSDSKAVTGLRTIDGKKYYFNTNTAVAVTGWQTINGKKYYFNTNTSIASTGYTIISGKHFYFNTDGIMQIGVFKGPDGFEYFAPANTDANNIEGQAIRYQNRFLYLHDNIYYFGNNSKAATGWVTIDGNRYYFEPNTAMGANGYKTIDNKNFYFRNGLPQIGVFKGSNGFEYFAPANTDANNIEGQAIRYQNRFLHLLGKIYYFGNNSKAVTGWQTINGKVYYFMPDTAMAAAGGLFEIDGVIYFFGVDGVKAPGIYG
Experiment: BLI (Octet Red96), antibody on Protein A sensor, toxin in solution
MEASURED_ATTRIBUTE: kon (M⁻¹ s⁻¹)

| BINDER | QUANTITY_UNIT | MEASURED |
| --- | --- | --- |
| A1 antibody (antibody, V domains shown) VH: QVHLQESGPGLVKPSETLSLTCTVSGDSISTYYWSWIRQPPGKGLEWIGYVYYTGSTNYSPSLEGRVTLSVDTSKNQFSLKLNSVSAADTAVYYCARGAAEWLRFRGFFDYWGQGILVSVSS VL: EVVLTQSPGTLSLSPGERATLSCRASQSVTNGFLAWYQQKPGQAPRVLIYGASSRATGIPDRFSGSGSGTDFTLTISRLEPEDFAMYYCQQYGLSGTFGQGTKLEIKR | M⁻¹ s⁻¹ | 375000 |
